assay: Pharmacokinetics of oral administration in rats (plasma); format: in vivo; details: rat, plasma, po, 25 mg/kg, oral (P.O.), 25 mg/kg, read-out: Tmax (peak time)
quantity-kind: Tmax
Include the unit right after the number.

Exercise: If you can, please state the reported Tmax value of CC1(C)C[C@@H](O)[C@]2(C)CC[C@]3(C)C(=CC[C@@H]4[C@@]5(C)CC[C@H](O)[C@](C)(CO)[C@@H]5CC[C@]43C)[C@@H]2C1 [Soyasapogenol B] .
Solution: 2 h

###

experiment: Pharmacokinetics of oral administration in rats (plasma); format: in vivo; details: rat, plasma, po, 50 mg/kg, oral (P.O.), 50 mg/kg, read-out: Tmax (peak time)
quantity-kind: Tmax (h)
Entry rule: numbers only, all in h.

Exercise: If you can, please state the reported Tmax value of CC1(C)C[C@@H](O)[C@]2(C)CC[C@]3(C)C(=CC[C@@H]4[C@@]5(C)CC[C@H](O)[C@](C)(CO)[C@@H]5CC[C@]43C)[C@@H]2C1 .
Solution: 2

###

assay: Pharmacokinetics of intravenous injection in rats (plasma); assay type: in vivo; settings: plasma; rat, intravenous (I.V.), 50 mg/kg, mean n = 6
quantity-kind: AUC(0-t) (µg·h/mL)
Entry rule: numbers only, all in µg·h/mL.

Exercise: If you can, please state the reported AUC(0-t) value of CC1(C)C[C@@H](O)[C@]2(C)CC[C@]3(C)C(=CC[C@@H]4[C@@]5(C)CC[C@H](O)[C@](C)(CO)[C@@H]5CC[C@]43C)[C@@H]2C1 .
Solution: 154

###

assay: Pharmacokinetics of oral administration in rats (plasma); type: in vivo; settings: plasma; rat, oral (P.O.), 50 mg/kg, mean n = 6
quantity-kind: AUC(0-t) (µg·h/mL)
Entry rule: numbers only, all in µg·h/mL.

Exercise: If you can, please state the reported AUC(0-t) value of CC1(C)C[C@@H](O)[C@]2(C)CC[C@]3(C)C(=CC[C@@H]4[C@@]5(C)CC[C@H](O)[C@](C)(CO)[C@@H]5CC[C@]43C)[C@@H]2C1 .
Solution: 157

###

experiment: Pharmacokinetics of oral administration in rats (plasma); assay type: in vivo; conditions: rat, plasma, po, 20 mg/kg, oral (P.O.), 20 mg/kg, read-out: Cmax (peak concentration)
quantity-kind: Cmax (ng/mL)
Entry rule: numbers only, all in ng/mL.

Exercise: If you can, please state the reported Cmax value of CC1(C)C[C@H]2C3=CC[C@@H]4[C@@]5(C)CC[C@H](O)[C@](C)(CO)[C@@H]5CC[C@@]4(C)[C@]3(C)CC[C@@]2(C)[C@H](O)[C@@H]1O .
Solution: 29000

###

test: Pharmacokinetics of intravenous injection in rats (plasma); assay type: in vivo; details: plasma; rat, intravenous (I.V.), 25 mg/kg
quantity-kind: AUC(0-inf) (µg·h/mL)
Entry rule: numbers only, all in µg·h/mL.

Exercise: If you can, please state the reported AUC(0-inf) value of CC1(C)C[C@@H](O)[C@]2(C)CC[C@]3(C)C(=CC[C@@H]4[C@@]5(C)CC[C@H](O)[C@](C)(CO)[C@@H]5CC[C@]43C)[C@@H]2C1 .
Solution: 181

###

experiment: Pharmacokinetics of intravenous injection in rats (plasma); type: in vivo; details: plasma; rat, intravenous (I.V.), 10 mg/kg
quantity-kind: Tmax (min)
Entry rule: numbers only, all in min.

Exercise: If you can, please state the reported Tmax value of CC1(C)C[C@H]2C3=CC[C@@H]4[C@@]5(C)CC[C@H](O)[C@](C)(CO)[C@@H]5CC[C@@]4(C)[C@]3(C)CC[C@@]2(C)[C@H](O)[C@@H]1O .
Solution: 1.8
